Source listed as ChEMBL document CHEMBL4219021.

SUBJECT_OF_TEST: Bromodomain-containing protein 3 (Homo sapiens, UniProt Q15059)
Sequence (Q15059 whole entry): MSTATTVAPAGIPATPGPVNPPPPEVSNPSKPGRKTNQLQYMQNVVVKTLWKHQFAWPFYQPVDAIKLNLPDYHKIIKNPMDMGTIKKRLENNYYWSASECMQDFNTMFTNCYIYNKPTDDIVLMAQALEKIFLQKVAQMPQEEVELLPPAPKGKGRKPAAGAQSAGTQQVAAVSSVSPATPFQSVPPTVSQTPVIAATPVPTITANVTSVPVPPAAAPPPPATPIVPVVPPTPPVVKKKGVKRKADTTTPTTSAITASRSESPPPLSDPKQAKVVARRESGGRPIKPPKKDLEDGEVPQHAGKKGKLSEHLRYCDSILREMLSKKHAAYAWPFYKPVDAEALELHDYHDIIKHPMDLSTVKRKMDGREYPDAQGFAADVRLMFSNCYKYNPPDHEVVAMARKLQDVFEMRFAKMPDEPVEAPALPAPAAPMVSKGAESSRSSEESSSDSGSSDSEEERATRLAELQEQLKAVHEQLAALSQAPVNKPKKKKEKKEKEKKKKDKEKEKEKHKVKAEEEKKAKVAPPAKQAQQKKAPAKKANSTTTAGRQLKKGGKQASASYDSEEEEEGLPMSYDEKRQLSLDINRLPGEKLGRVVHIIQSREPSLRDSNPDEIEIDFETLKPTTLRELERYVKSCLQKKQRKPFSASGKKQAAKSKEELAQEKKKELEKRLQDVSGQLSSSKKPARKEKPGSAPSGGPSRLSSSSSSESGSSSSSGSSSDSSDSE
METHOD_NOTES: Inhibition of FAM-labeled ZBA248 binding to recombinant N-terminal His6-tagged BRD3 bromodomain 2 (306 to 417residues) (unknown origin) expressed in Escherichia coli Rosetta2 DE3 after 30 mins by fluorescence polarization assay
PARAMETER_MEASURED: IC50 (nM)

[
  {
    "SMILES_INPUT": "CCn1nc(C2CC2)cc1Nc1nc(C(=O)NC)nc2[nH]c3cc(-c4c(C)noc4C)c(OC)cc3c12",
    "SUBJECT_OF_TEST": "Bromodomain-containing protein 3 (Homo sapiens, UniProt Q15059)",
    "PARAMETER_MEASURED": "IC50",
    "OBSERVED_RESULT": 1.9
  },
  {
    "SMILES_INPUT": "CNC(=O)c1ncc2c(n1)[nH]c1cc(-c3c(C)noc3C)c(OC)cc12",
    "SUBJECT_OF_TEST": "Bromodomain-containing protein 3 (Homo sapiens, UniProt Q15059)",
    "PARAMETER_MEASURED": "IC50",
    "OBSERVED_RESULT": 189
  }
]

====

SUBJECT_OF_TEST: Bromodomain-containing protein 4 (Homo sapiens)
METHOD_NOTES: Inhibition of FAM-labeled ZBA248 binding to recombinant N-terminal His6-tagged BRD4 bromodomain 1 (44 to 168 residues) (unknown origin) expressed in Escherichia coli Rosetta2 DE3 after 30 mins by fluorescence polarization assay
pKi: −log10 of the molar value.
The molecules listed here are annotated with their pKi.
PARAMETER_MEASURED: pKi

[
  {
    "SMILES_INPUT": "CNC(=O)c1ncc2c(n1)[nH]c1cc(-c3c(C)noc3C)c(OC)cc12",
    "SUBJECT_OF_TEST": "Bromodomain-containing protein 4 (Homo sapiens)",
    "PARAMETER_MEASURED": "pKi",
    "OBSERVED_RESULT": 6.82
  },
  {
    "SMILES_INPUT": "CCn1nc(C2CC2)cc1Nc1nc(C(=O)NC)nc2[nH]c3cc(-c4c(C)noc4C)c(OC)cc3c12",
    "SUBJECT_OF_TEST": "Bromodomain-containing protein 4 (Homo sapiens)",
    "PARAMETER_MEASURED": "pKi",
    "OBSERVED_RESULT": 9.30
  }
]

====

SUBJECT_OF_TEST: Bromodomain-containing protein 2 (Homo sapiens)
Sequence (P25440 whole entry, the tested form may be a part): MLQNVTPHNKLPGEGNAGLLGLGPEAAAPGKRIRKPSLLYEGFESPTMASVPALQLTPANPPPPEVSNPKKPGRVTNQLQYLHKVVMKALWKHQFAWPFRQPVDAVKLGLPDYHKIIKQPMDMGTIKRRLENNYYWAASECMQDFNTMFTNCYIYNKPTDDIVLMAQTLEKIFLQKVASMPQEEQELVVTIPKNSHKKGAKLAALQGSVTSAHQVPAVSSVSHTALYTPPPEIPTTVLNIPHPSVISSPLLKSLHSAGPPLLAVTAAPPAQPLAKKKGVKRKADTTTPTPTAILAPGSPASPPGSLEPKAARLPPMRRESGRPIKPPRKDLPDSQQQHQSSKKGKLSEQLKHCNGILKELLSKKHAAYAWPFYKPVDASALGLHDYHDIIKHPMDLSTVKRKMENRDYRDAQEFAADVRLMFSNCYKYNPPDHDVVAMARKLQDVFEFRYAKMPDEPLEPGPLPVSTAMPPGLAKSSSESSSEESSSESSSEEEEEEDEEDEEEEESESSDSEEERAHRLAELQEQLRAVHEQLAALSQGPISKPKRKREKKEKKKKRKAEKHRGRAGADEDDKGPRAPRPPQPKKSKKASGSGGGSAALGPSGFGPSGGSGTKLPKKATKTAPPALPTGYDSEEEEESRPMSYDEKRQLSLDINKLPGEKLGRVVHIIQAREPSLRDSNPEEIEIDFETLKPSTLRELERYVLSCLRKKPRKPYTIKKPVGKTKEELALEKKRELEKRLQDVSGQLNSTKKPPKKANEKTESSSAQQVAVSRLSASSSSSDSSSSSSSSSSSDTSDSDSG
METHOD_NOTES: Inhibition of FAM-labeled ZBA248 binding to recombinant N-terminal His6-tagged BRD2 bromodomain 2 (349 to 460 residues) (unknown origin) expressed in Escherichia coli Rosetta2 DE3 after 30 mins by fluorescence polarization assay
PARAMETER_MEASURED: Ki (nM)

[
  {
    "SMILES_INPUT": "CNC(=O)c1ncc2c(n1)[nH]c1cc(-c3c(C)noc3C)c(OC)cc12",
    "SUBJECT_OF_TEST": "Bromodomain-containing protein 2 (Homo sapiens)",
    "PARAMETER_MEASURED": "Ki",
    "OBSERVED_RESULT": 57.3
  },
  {
    "SMILES_INPUT": "CCn1nc(C2CC2)cc1Nc1nc(C(=O)NC)nc2[nH]c3cc(-c4c(C)noc4C)c(OC)cc3c12",
    "SUBJECT_OF_TEST": "Bromodomain-containing protein 2 (Homo sapiens)",
    "PARAMETER_MEASURED": "Ki",
    "OBSERVED_RESULT": 0.27
  }
]
